biological target: CXCR3 (Homo sapiens (Human)); test: Receptor internalization assay in human whole blood (CXCR3 surface expression on CD4 positive cells, CXCL10); details: final CXCL10 9 nM, 30 min at 37° C., mean values
Sequence (P49682 whole entry): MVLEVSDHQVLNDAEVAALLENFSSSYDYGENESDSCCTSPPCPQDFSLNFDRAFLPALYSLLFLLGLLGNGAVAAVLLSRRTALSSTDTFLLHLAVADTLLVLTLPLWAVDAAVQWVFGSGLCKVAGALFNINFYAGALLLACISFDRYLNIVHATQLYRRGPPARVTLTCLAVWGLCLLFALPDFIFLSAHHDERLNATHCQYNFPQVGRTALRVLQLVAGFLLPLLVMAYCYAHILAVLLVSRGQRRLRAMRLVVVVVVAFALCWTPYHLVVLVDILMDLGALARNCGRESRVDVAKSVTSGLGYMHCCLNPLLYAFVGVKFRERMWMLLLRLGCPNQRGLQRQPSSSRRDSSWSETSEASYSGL
Hi! Just check whether IC50 is below 1000 nM. Below gives Y, equal or above gives N.

Determine if CC(C)c1ncn(CC(=O)N2CCN(c3sc(C(F)(F)F)nc3-c3ccc(C(F)(F)F)nc3)C[C@@H]2CO)n1 shows IC50 strictly lower than 1000 nM.
Y

What about O=C(Cn1cnc(C2CC2)n1)N1CCN(c2sc(C(F)(F)F)nc2-c2cnc(C(F)(F)F)nc2)C[C@H]1CCO ?
Y

What about Cc1ccn(CC(=O)N2CCN(c3sc(C(F)(F)F)nc3-c3cnc(C(F)(F)F)nc3)C[C@@H]2CO)n1 ?
Y

What about O=C(Cn1cnc(C(F)(F)F)n1)N1CCN(c2sc(C(F)(F)F)nc2-c2cnc(C3CC3)nc2)C[C@H]1CO ?
N

What about O=C(Cn1cnc2ccccc21)N1CCN(c2sc(C(F)(F)F)nc2-c2cnc(C(F)(F)F)nc2)C[C@@H]1CO ?
N

---

What IC50 was measured for each of the following?
molecular target: human CXCR3A (Homo sapiens (Human)); experiment: FLIPR assay (CXCL10-induced calcium signal); conditions: CHO-K1 cells expressing human CXCR3A coupled to Galpha(16); CXCL10 agonist 20 nM; mean values
Sequence (P49682 whole entry): as above
Lab book: enter the figure in nM, no units written.

Can you look up the measured IC50 of O=C(Cn1cnc(C(F)(F)F)n1)N1CCN(c2sc(C(F)(F)F)nc2-c2cnc(C(F)(F)F)nc2)C[C@H]1CCO [Example 28] for me?
1.1

What about CCc1ncnn1CC(=O)N1CCN(c2sc(C(F)(F)F)nc2-c2cnc(C(F)(F)F)nc2)C[C@H]1CCO [Example 33] ?
27

What about Cc1ccn(CC(=O)N2CCN(c3sc(C(F)(F)F)nc3-c3cnc(C(F)(F)F)nc3)C[C@H]2CO)n1 [Example 42] ?
1

What about COCc1ncn(CC(=O)N2CCN(c3sc(C(F)(F)F)nc3-c3cnc(C(F)(F)F)nc3)C[C@@H]2CO)n1 [Example 17] ?
5.9

What about O=C(Cn1ccc(C2CC2)n1)N1CCN(c2sc(C(F)(F)F)nc2-c2cnc(C(F)(F)F)nc2)C[C@H]1CO [Example 44] ?
0.38

What about Cc1nc(C)n(CC(=O)N2CCN(c3sc(C(F)(F)F)nc3-c3cnc(C(F)(F)F)nc3)C[C@H]2CCO)n1 [Example 27] ?
5.2

What about CC(=O)c1ncn(CC(=O)N2CCN(c3sc(C(F)(F)F)nc3-c3cnc(C(F)(F)F)nc3)C[C@@H]2CO)n1 [Example 20] ?
6.4

---

target: UniProtKB P49682; test: FLIPR assay (CXCL10-induced calcium signal); conditions: CHO-K1 cells expressing human CXCR3A coupled to Galpha(16); CXCL10 agonist 20 nM; mean values
reported.metric: pIC50
In textbook form, pIC50 equals minus log to base ten of the concentration in mol/L.

Can you look up the measured pIC50 of COCc1ncn(CC(=O)N2CCN(c3sc(C(F)(F)F)nc3-c3cnc(C(F)(F)F)nc3)C[C@H]2CCO)n1 for me?
8.24

What about O=C(Cn1cnc2ccccc21)N1CCN(c2sc(C(F)(F)F)nc2-c2cnc(C(F)(F)F)nc2)C[C@@H]1CO ?
8.92

What about CCOc1ncc(-c2nc(C(F)(F)F)sc2N2CCN(C(=O)Cn3cnc(C(F)(F)F)n3)[C@H](CO)C2)cn1 ?
8.34

What about Cc1nc(C)n(CC(=O)N2CCN(c3sc(C(F)(F)F)nc3-c3cnc(C(F)(F)F)nc3)C[C@@H]2CO)n1 ?
8.16

What about COc1ccc2c(ccn2CC(=O)N2CCN(c3sc(C(F)(F)F)nc3-c3cnc(C(F)(F)F)nc3)C[C@@H]2CO)c1 ?
8.64

What about CCc1ccn(CC(=O)N2CCN(c3sc(C(F)(F)F)nc3-c3cnc(C(F)(F)F)nc3)C[C@H]2CCO)n1 ?
8.80

What about CC(C)c1ncn(CC(=O)N2CCN(c3sc(C(F)(F)F)nc3-c3cnc(C(F)(F)F)nc3)C[C@H]2CCO)n1 ?
8.35

What about O=C(Cn1cnc(C(F)(F)F)n1)N1CCN(c2sc(C(F)(F)F)nc2-c2cnc(C(F)(F)F)nc2)C[C@H]1CO ?
8.40

What about CC(C)(C)c1ncn(CC(=O)N2CCN(c3sc(C(F)(F)F)nc3-c3cnc(C(F)(F)F)nc3)C[C@H]2CCO)n1 ?
8.36

What about CCOc1ncc(-c2nc(C(F)(F)F)sc2N2CCN(C(=O)Cn3nc(C)nc3C)[C@H](CO)C2)cn1 ?
8.51
